Tested on: MS2 coat protein
TEST_NAME: apparent KD of MS2 coat protein; designed switch direction (-1 OFF switch, 1 ON switch): -1; higher = weaker reporter binding
CONDITIONS: Eterna round: R95; input ligand: none
Task for the reader: assign each of the following sequences its reported apparent KD of MS2 coat protein.
Just the number in nM, nothing appended.

Exercise: What value of apparent KD of MS2 coat protein has been reported for the following sequence? AGAAGUAGAAACCGAUCCUACAUGAGGAUCACCCAUGUAGCAAGACGUGCACGCGAAGCUCGUCAGACUACCAGAAC [salish99_TOv1_r3_008] (puzzle: Sensor v3, turn-off variant 1)
Key: 421

Exercise: Then GAUUAUGCGAGCUUUAGGGACAUGAGGAUCACCCAUGUUCGUCUUAUUGGUCUAGGUACACUGACAUACCUAAAUCU [JMF 68] (puzzle: Sensor v3, turn-off variant 1) ?
Key: 23

Exercise: Then GAUUACACAAGCUUUAGGGACAUGAGGAUCACCCAUGUUCGUCUUAUUGAUCUAGGUACGCUGACGUACCUAGAUCU [JL-sv1-2.31 Brourd mod] (puzzle: Sensor v3, turn-off variant 1) ?
Key: 13.2

Exercise: Then CCGAAGUGGCGGUCCUAUGACAUGAGGAUCACCCAUGUACUUCGCCACAAGCUUUUUGCUCAUCUUAUAGUUCUCGG [Ator] (puzzle: Sensor v3, turn-off variant 1) ?
Key: 16.4

Exercise: Then GAGAAACAUGAGGAUCACCCAUGUGAGGAUAUGAAAAAGAAAAGAAAAGAAAGAAGAAUCAGAAGGCACAAAGG [salish99-ex1_r3_078] (puzzle: Exclusion 1) ?
Key: 39.1

Exercise: Then CGUCCGGCUUCCCUUCAAGACAUGAGGAUCACCCAUGUUUUUGUUUUUGCGAGCUUUUUGCUUUUUGCUCGUCUUGU [Even Better Attempt 2] (puzzle: Sensor v3, turn-off variant 1) ?
Key: 18.7

Exercise: Then CGUAGUCUUCGGACUACGAACAUGAGGAUCACCCAUGUAAUGAGCAGAUCCUCAUGCAAGCUUUUUGCUCGUCUUAU [Sensor v3 - turn-off variant 1 - 46] (puzzle: Sensor v3, turn-off variant 1) ?
Key: 20.7

Exercise: Then GGUGCUGGCGCGUCGGUGUUGGUGCAAUAAGCUUGUGAGACAUGAGGAUCACCCAUGUCCUCGUGGGCUCGUCUUGU [salish99_TOv2_r2_091] (puzzle: Sensor v3, turn-off variant 2) ?
Key: 93.7

Exercise: Then AGUACUAACACGGUUGUGUUAGUACAAUAAGCUUGUGAAACAUGAGGAUCACCCAUGUCCUCAUAAGCUCGUCUUAU [salish99_TOv2_r3_070] (puzzle: Sensor v3, turn-off variant 2) ?
Key: 15.1

* * *

Task for the reader: assign each of the following sequences its reported apparent KD of MS2 coat protein.
Test system: MS2 coat protein
TEST_NAME: apparent KD of MS2 coat protein; designed switch direction (-1 OFF switch, 1 ON switch): 1; higher = weaker reporter binding
CONDITIONS: input ligand: microRNA oligo, concentration not stated
Just the number in nM, nothing appended.

Exercise: What value of apparent KD of MS2 coat protein has been reported for the following sequence? UUAAUGAUGAUAGGAUAUACAUGAGGAAUCCUCGUAGAAGGAUCAUGACAUGAGGAUCACCCAUGUAACGCUCAGAAGAGCGUA [Mat - Same State NG 1 - JL mod - D42] (Eterna round: R96, puzzle: Same State NG 1)
Key: 37

Exercise: Then GUACAGAUCACAGGAUAUCACGUCGAUUAGACGUGAGAAGGGUGAUCACACAUGAAUAUUAAUACAUGAGGAUCACCCAUGUAC [SSNG1/16-A2] (Eterna round: R96, puzzle: Same State NG 1) ?
Key: 22.5

Exercise: Then GUUAGGAAUCUAGCAGACAUGAGGAUCACCCAUGUUAGUGGGAAGGAUAUGGUACAGAAACUGUACCAGAAGGUCUUAUUGUUU [Omei SS(NG) 3 AV13] (Eterna round: R96, puzzle: Same State NG 3) ?
Key: 398

Ref: the supplement of paper PMC9170038
